Reference source: ChEMBL document CHEMBL1128580

system: Bacteroides fragilis; assay: Minimum Inhibitory concentration measured against Bacteroides fragilis ATCC 25285; format: functional
Measured parameter: MIC (µg/mL)

These recorded examples may help you get a feel for the data.
- Molecule: "CCc1cc(-c2cc3c(cc2F)c(=O)c(C(=O)O)cn3C2CC2)ccn1"
  MIC [µg/mL]: 1
- Molecule: "Cc1cc(-c2cc3c(cc2F)c(=O)c(C(=O)O)cn3C2CC2)cc(CO)n1"
  MIC [µg/mL]: 1
- Molecule: "Cc1cc(-c2c(F)c(F)c3c(=O)c(C(=O)O)cn(C4CC4)c3c2F)cc(C)n1"
  MIC [µg/mL]: 0.5
- Molecule: "O=C(O)c1cn(C2CC2)c2cc(N3CCNCC3)c(F)cc2c1=O [CIPROFLOXACIN]"
  MIC [µg/mL]: 2
- Molecule: "CCn1cc(C(=O)O)c(=O)c2cc(F)c(N3CCNCC3)cc21 [NORFLOXACIN]"
  MIC [µg/mL]: 8

[1] CNCc1cc(-c2cc3c(cc2F)c(=O)c(C(=O)O)cn3C2CC2)cc(C)n1
[2] O=C(O)c1cn(C2CC2)c2cc(-c3cccnc3)c(F)cc2c1=O
Just tell me: smaller MIC value, 1 or 2 ? Returns: label corresponding to the selected item.
2

====

test system: Escherichia coli; assay: Minimum Inhibitory concentration measured against Escherichia coli ATCC 1-25922; assay type: functional
Measured parameter: MIC (µg/mL)

- Item smiles: "CNCc1cc(-c2cc3c(cc2F)c(=O)c(C(=O)O)cn3C2CC2)cc(C)n1"
  MIC / µg/mL: 0.016

[1] Cc1cc(-c2cc3c(cc2F)c(=O)c(C(=O)O)cn3C2CC2)cc(CN(C)C)n1
[2] CCn1cc(C(=O)O)c(=O)c2cc(F)c(-c3ccncc3)cc21
Just tell me: smaller MIC value, 1 or 2 ? Returns: label corresponding to the selected item.
1
(1: 0.06 µg/mL, 2: 0.125 µg/mL)

[1] Cc1cc(-c2cc3c(cc2F)c(=O)c(C(=O)O)cn3C2CC2)c(C)c(C)n1
[2] CNn1cc(C(=O)O)c(=O)c2cc(F)c(-c3cc(C)nc(C)c3)cc21
Just tell me: smaller MIC value, 1 or 2 ? Returns: label corresponding to the selected item.
1
(1: 0.125 µg/mL, 2: 0.25 µg/mL)

[A] CCn1cc(C(=O)O)c(=O)c2cc(F)c(-c3cc(C)nc(C)c3)cc21
[B] Cc1cc(-c2c(F)c(F)c3c(=O)c(C(=O)O)cn(C4CC4)c3c2F)cc(C)n1
[C] Cc1cc(-c2cc3c(cc2F)c(=O)c(C(=O)O)cn3C(C)(C)C)cc(C)n1
Sort (3 compounds) by MIC: min first. Put the labels in the requested order and list them out.
A, B, C
(A: 0.06 µg/mL, B: 0.13 µg/mL, C: 0.25 µg/mL)

[a] CCNCc1cc(-c2cc3c(cc2F)c(=O)c(C(=O)O)cn3C2CC2)cc(C)n1
[b] CCc1cc(-c2cc3c(cc2F)c(=O)c(C(=O)O)cn3C2CC2)ccn1
Between these two entries, a and b , state which has the higher MIC. Returns: label corresponding to the selected item.
b
(b: 0.125 µg/mL, a: 0.06 µg/mL)

====

system: Escherichia coli; test: Minimum Inhibitory concentration measured against Escherichia coli ATCC 1-25922; type: functional
Measured parameter: MIC (µg/mL)

- Item smiles: "CCn1cc(C(=O)O)c(=O)c2cc(F)c(N3CCNCC3)cc21"
  MIC [µg/mL]: 0.125

[1] Cc1ccc(-c2cc3c(cc2F)c(=O)c(C(=O)O)cn3C2CC2)c(C)n1
[2] Cc1cc(-c2cc3c(cc2F)c(=O)c(C(=O)O)cn3-c2ccc(F)cc2)cc(C)n1
[3] CCn1cc(C(=O)O)c(=O)c2ccc(-c3cc(C)nc(C)c3)cc21
[4] Cc1ccc(-c2cc3c(cc2F)c(=O)c(C(=O)O)cn3C2CC2)cn1
Sort (4 compounds) by MIC: min first. Put the labels in the requested order and list them out.
4, 2, 3, 1
(4: 0.03 µg/mL, 2: 0.125 µg/mL, 3: 0.25 µg/mL, 1: 0.5 µg/mL)

====

tested on: Bacteroides fragilis; assay: Minimum Inhibitory concentration measured against Bacteroides fragilis ATCC 25285; format: functional
Measured parameter: MIC (µg/mL)

- Compound: "CCn1cc(C(=O)O)c(=O)c2ccc(-c3cc(C)nc(C)c3)cc21 [DIMETHYLROSOXACIN]"
  Unit annotation: "µg/mL"
  MIC: 16

[A] Cc1cc(-c2cc3c(cc2F)c(=O)c(C(=O)O)cn3C(C)(C)C)cc(C)n1
[B] Cc1ccc(-c2cc3c(cc2F)c(=O)c(C(=O)O)cn3C2CC2)c(C)n1
Between these two entries, A and B , state which has the higher MIC. Returns: label corresponding to the selected item.
B
(B: 4 µg/mL, A: 1 µg/mL)

[1] O=C(O)c1cn(C2CC2)c2cc(-c3ccncc3)c(F)cc2c1=O
[2] Cc1cc(-c2nc3c(cc2F)c(=O)c(C(=O)O)cn3C2CC2)cc(C)n1
Just tell me: smaller MIC value, 1 or 2 ? Returns: label corresponding to the selected item.
1

[A] Cc1cc(-c2c(F)cc3c(=O)c(C(=O)O)cn(C4CC4)c3c2F)cc(C)n1 [WIN-57294]
[B] Cc1ccc(-c2cc3c(cc2F)c(=O)c(C(=O)O)cn3C2CC2)cn1
[C] COCc1cc(-c2cc3c(cc2F)c(=O)c(C(=O)O)cn3C2CC2)cc(C)n1
Sort (3 compounds) by MIC: min first. Put the labels in the requested order and list them out.
A, B, C

====

tested on: Enterococcus faecalis; test: Minimum Inhibitory concentration measured against Streptococcus faecalis ATCC 29212; type: functional
Measured parameter: MIC (µg/mL)

[P] O=C(O)c1cn(C2CC2)c2cc(-c3ccncc3)c(F)cc2c1=O
[Q] Cc1cc(-c2cc3c(cc2F)c(=O)c(C(=O)O)cn3C(C)(C)C)cc(C)n1
Just tell me: smaller MIC value, P or Q ? Returns: label corresponding to the selected item.
Q

[P] CCn1cc(C(=O)O)c(=O)c2ccc(-c3ccncc3)cc21
[Q] Cc1cc(-c2cc3c(cc2F)c(=O)c(C(=O)O)cn3C2CC2)c(C)c(C)n1
[R] Cc1cc(-c2c(F)c(F)c3c(=O)c(C(=O)O)cn(C4CC4)c3c2F)cc(C)n1
Sort (3 molecules) by MIC: min first. Put the labels in the requested order and list them out.
R, Q, P
(R: 0.06 µg/mL, Q: 0.5 µg/mL, P: 16 µg/mL)

[1] Cc1cc(-c2cc3c(cc2F)c(=O)c(C(=O)O)cn3C2CC2)cc(CN(C)C)n1
[2] CNCc1cc(-c2cc3c(cc2F)c(=O)c(C(=O)O)cn3C2CC2)cc(C)n1
Just tell me: smaller MIC value, 1 or 2 ? Returns: label corresponding to the selected item.
2
(2: 0.2 µg/mL, 1: 0.5 µg/mL)

[I] Cc1cc(-c2c(F)cc3c(=O)c(C(=O)O)cn(C4CC4)c3c2F)cc(C)n1
[II] Cc1cncc(-c2cc3c(cc2F)c(=O)c(C(=O)O)cn3C2CC2)c1
[III] CCn1cc(C(=O)O)c(=O)c2cc(F)c(-c3cc(C)nc(C)c3)cc21
[IV] Cc1cc(-c2cc3c(cc2F)c(=O)c(C(=O)O)cn3-c2ccc(F)cc2)cc(C)n1
Sort (4 molecules) by MIC: min first. Put the labels in the requested order and list them out.
I, II, III, IV
(I: 0.06 µg/mL, II: 0.125 µg/mL, III: 0.25 µg/mL, IV: 1 µg/mL)

[1] O=C(O)c1cn(C2CC2)c2cc(-c3cccnc3)c(F)cc2c1=O
[2] COCc1cc(-c2cc3c(cc2F)c(=O)c(C(=O)O)cn3C2CC2)cc(C)n1
[3] CCNCc1cc(-c2cc3c(cc2F)c(=O)c(C(=O)O)cn3C2CC2)cc(C)n1
Hey, quick one: sort these by MIC, largest value first please. Put the labels in the requested order and list them out.
3, 1, 2
(3: 2 µg/mL, 1: 0.25 µg/mL, 2: 0.125 µg/mL)

[A] Cc1cc(-c2nc3c(cc2F)c(=O)c(C(=O)O)cn3C2CC2)cc(C)n1
[B] Cc1cc(-c2cc3c(cc2F)c(=O)c(C(=O)O)cn3C2CC2)cc(C)n1
[C] Cc1ccc(-c2cc3c(cc2F)c(=O)c(C(=O)O)cn3C2CC2)c(C)n1
[D] CCc1cc(-c2cc3c(cc2F)c(=O)c(C(=O)O)cn3C2CC2)ccn1
Hey, quick one: sort these by MIC, largest value first please. Put the labels in the requested order and list them out.
C, D, A, B

[I] Cc1cc(-c2cc3c(cc2F)c(=O)c(C(=O)O)cn3C2CC2)cc(CO)n1
[II] Cc1cc(-c2cc3c(cc2F)c(=O)c(C(=O)O)cn3C2CC2)ccn1
Between these two entries, I and II , state which has the higher MIC. Returns: label corresponding to the selected item.
I
(I: 0.125 µg/mL, II: 0.06 µg/mL)
